Where do the numbers come from? From patent US11186564B2.

# assay target: UniProt Q99250
# test method notes: NaV1.2 inhibition, automated patch-clamp (Q-Patch HTX), slow inactivated state (state C)
# Format: cell-based
# condition: reference compound, Test 1; read-out: IC50 (μM) for NaV1.2 slow inactivated state, Test 1

{"columns": ["molecule", "uom", "IC50"],
 "data": [
  ["Nc1nnc(-c2cccc(Cl)c2Cl)c(N)n1 [lamotrigine, reference compound]", "µM", 34],
  ["CN1CCN(c2ncc(-c3cc(Cl)cc(Cl)c3Cl)c(N)n2)CC1", "µM", 1.6],
  ["NC(=O)N1c2ccccc2C=Cc2ccccc21 [carbamazepine, reference compound]", "µM", 19]
]}

###

Recorded pIC50 by entry
# assay target: human sodium channel NaV1.2 (Homo sapiens, UniProt Q99250)
# Sequence (Q99250 whole entry): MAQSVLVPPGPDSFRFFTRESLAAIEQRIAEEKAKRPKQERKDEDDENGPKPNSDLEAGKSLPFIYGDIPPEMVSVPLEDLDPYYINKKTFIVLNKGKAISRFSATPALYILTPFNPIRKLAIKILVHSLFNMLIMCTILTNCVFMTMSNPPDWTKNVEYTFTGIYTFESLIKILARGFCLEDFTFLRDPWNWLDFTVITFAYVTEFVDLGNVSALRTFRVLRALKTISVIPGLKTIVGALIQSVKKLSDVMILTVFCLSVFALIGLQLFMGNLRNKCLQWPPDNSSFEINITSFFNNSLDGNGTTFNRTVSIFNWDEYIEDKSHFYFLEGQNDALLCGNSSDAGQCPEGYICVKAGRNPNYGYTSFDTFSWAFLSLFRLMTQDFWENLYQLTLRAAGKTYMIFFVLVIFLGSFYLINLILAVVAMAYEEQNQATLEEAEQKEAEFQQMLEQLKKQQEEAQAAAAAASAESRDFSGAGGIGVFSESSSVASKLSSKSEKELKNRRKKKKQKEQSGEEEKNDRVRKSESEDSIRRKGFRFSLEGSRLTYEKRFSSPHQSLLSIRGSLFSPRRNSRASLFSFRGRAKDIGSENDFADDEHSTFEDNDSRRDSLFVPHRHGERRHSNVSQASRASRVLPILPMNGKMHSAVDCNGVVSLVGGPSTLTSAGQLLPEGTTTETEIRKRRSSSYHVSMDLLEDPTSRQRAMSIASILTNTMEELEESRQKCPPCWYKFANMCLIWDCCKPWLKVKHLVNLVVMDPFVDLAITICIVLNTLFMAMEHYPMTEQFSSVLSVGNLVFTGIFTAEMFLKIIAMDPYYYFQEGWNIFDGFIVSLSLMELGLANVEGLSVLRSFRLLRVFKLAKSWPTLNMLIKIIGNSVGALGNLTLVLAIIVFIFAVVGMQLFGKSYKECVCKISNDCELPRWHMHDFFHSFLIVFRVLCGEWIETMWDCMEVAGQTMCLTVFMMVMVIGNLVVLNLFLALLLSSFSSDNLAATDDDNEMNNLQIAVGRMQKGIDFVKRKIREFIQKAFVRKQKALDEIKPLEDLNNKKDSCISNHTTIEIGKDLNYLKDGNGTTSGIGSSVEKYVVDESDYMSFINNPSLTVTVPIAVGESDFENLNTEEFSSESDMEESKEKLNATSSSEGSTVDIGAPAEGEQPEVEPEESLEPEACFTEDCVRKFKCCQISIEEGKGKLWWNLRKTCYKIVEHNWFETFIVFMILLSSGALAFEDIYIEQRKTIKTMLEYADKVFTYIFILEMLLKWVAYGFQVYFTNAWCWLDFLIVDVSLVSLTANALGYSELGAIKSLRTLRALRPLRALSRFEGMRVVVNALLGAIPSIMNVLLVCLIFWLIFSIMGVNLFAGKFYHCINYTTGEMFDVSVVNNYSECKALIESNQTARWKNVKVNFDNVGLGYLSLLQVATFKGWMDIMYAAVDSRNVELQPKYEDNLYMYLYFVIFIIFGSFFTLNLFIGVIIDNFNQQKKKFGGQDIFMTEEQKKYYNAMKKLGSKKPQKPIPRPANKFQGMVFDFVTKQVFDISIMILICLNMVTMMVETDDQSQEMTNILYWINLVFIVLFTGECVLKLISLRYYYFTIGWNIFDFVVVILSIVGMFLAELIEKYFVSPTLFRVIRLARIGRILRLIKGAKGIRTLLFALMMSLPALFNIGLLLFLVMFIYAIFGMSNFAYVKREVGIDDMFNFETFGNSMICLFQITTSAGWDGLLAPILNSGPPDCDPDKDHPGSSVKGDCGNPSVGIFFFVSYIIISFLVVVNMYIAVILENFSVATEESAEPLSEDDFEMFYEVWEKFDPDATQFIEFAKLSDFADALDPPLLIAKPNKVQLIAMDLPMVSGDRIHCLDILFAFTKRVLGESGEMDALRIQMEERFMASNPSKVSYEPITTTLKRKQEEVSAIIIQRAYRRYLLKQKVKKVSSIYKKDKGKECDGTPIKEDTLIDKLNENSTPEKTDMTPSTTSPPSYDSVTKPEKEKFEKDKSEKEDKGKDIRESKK
# test method notes: NaV1.2 inhibition, automated patch-clamp (Q-Patch HTX), slow inactivated state (state C)
# Assay type: cell-based
# condition: hNaV1.2 CHO cells, slow inactivated state; read-out: NaV1.2 IC50
pIC50: −log10 of the molar value. Where a name gives a salt, the structure may show the parent alone.

{"columns": ["compound", "pIC50"],
 "data": [
  ["c1ccc([C@@H]2COC3(CCN(C[C@H]4CCc5ccccc54)CC3)C2)cc1 (single isomer, unassigned)", 6.54],
  ["OC(CO[C@@H]1CCc2ccccc21)CN1CCC(Oc2ccc(F)cc2)CC1 (stereo partly drawn)", 6.26],
  ["c1ccc(O[C@@H]2COC3(C2)CN(C[C@@H]2CCc4ccccc42)C3)cc1 (single isomer, unassigned)", 6.16],
  ["CN(C)c1ccc2c(c1)C(CN1CCC(Oc3ccc(F)cc3)CC1)CC2 (stereo not drawn)", 5.63],
  ["COc1ccccc1O[C@@H]1CCN(CC2Cc3ccccc3C2)C[C@@H]1C", 6.27],
  ["Cc1cccc(N2CCN(CC3(O)COCc4ccccc43)CC2)c1C (stereo not drawn)", 6.37],
  ["OC(COC1CCCCC1)CN1[C@@H]2CC[C@H]1CN(c1ccccc1)C2 (stereo partly drawn)", 5.90],
  ["Fc1ccc(O[C@H]2CCCN(CC3CCc4ccccc43)C2)cc1 (stereo partly drawn)", 6.11],
  ["Fc1ccc(O[C@H]2CCN(CC3CCc4cccnc43)C2)cc1 (stereo partly drawn)", 5.13],
  ["COc1ccccc1N1CCN(CC(O)COc2cccc3ccccc23)CC1 (stereo not drawn)", 8.00],
  ["Fc1ccc(OC2CCN(CC3CCc4ccccc43)CC2)cc1 (stereo not drawn)", 5.84],
  ["Fc1ccc(OC2CCN(CCC3CCc4cnccc43)CC2)cc1 (stereo not drawn)", 5.50],
  ["c1ccc2c(c1)CCC1(CCN(CCC3CCc4ccccc43)CC1)O2 (stereo not drawn)", 5.95],
  ["c1ccc2c(c1)CC(CN1CCC3(CC1)Cc1ccccc1O3)C2", 6.77],
  ["O=C1c2cc(Cl)ccc2CCCN1CCN1CCC(Oc2ccc(F)cc2)CC1", 6.57],
  ["Fc1ccc(OC2CCN(CCC3CCc4cccnc43)CC2)cc1 (stereo not drawn)", 6.36],
  ["COc1cccc(OC2CCN(CCCN3CCc4ccccc4C3=O)CC2)c1", 6.00],
  ["Fc1ccc(OC2CCN(CCC3CCc4ccccc43)CC2)cc1 (stereo not drawn)", 7.40],
  ["COc1ccccc1CN1CCC2(CCN(CC3CCc4ccccc43)C2)C1 (stereo not drawn)", 5.50],
  ["OC(COC1CCCCC1)CN1CCC2(CCc3ccccc3O2)CC1 (stereo not drawn)", 6.59],
  ["Fc1ccc(OC2COCCN(CC3CCc4ccccc43)C2)cc1 (stereo not drawn)", 6.36],
  ["c1ccc(O[C@H]2COC3(CCN(C[C@@H]4CCc5ccccc54)CC3)C2)cc1 (single isomer, unassigned)", 5.92],
  ["O[C@@H](COC1CCCCC1)CN1CCC2(CCN(c3ccccc3)C2)C1 (stereo partly drawn)", 6.49],
  ["COc1ccc2c(c1)C(CN1CCC(Oc3ccc(F)cc3)CC1)CC2 (stereo not drawn) [Example 113, hydrochloride]", 6.26],
  ["Nc1ccc2c(c1)C(CN1CCC(Oc3ccc(F)cc3)CC1)CC2 (stereo not drawn)", 5.59],
  ["OC(COC1CCCCC1)CN1C[C@@H]2C[C@H](C1)N(c1ccccc1)C2 (stereo partly drawn)", 6.51],
  ["COc1ccc2c(c1)C(CN1CCC(NS(=O)(=O)c3ccc(F)cc3)CC1)CC2 (stereo not drawn)", 6.70]
]}
